System: Escherichia coli TOP10;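 also: peptides expressed intracellularly from a pBAD plasmid library in pooled LB shake-flask culture, induced with 0.3% L-arabinose, DNA abundance read by NGS, three biological replicates, DESeq2 with apeglm shrinkage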
measurement_protocol: shrunken log2 fold change of peptide-encoding DNA abundance (4.5 h post-induction vs induction); higher = less antimicrobial activity (less host growth inhibition)
settings: time post-induction: 4.5 h; library: site-saturation at positions 5, 18, 19, 20
quantity_name: shrunken log2 fold change

{"columns": ["chain", "experimental_target", "quantity_name", "reported_measurement"],
 "data": [
  ["RRIRHRPPRLPRPRPRPHWPPRP", "Escherichia coli TOP10", "shrunken log2 fold change", -0.25],
  ["RRIRIRPPRLPRPRPRPNLEPRP", "Escherichia coli TOP10", "shrunken log2 fold change", -0.114],
  ["RRIRPRPPRLPRPRPRPRCLPRP", "Escherichia coli TOP10", "shrunken log2 fold change", -0.0858],
  ["RRIRNRPPRLPRPRPRPKPLPRP", "Escherichia coli TOP10", "shrunken log2 fold change", -0.102],
  ["RRIRRRPPRLPRPRPRPSEFPRP", "Escherichia coli TOP10", "shrunken log2 fold change", 0.00596],
  ["RRIRVRPPRLPRPRPRPRHPPRP", "Escherichia coli TOP10", "shrunken log2 fold change", 0.278],
  ["RRIRIRPPRLPRPRPRPFISPRP", "Escherichia coli TOP10", "shrunken log2 fold change", -1.43],
  ["RRIRWRPPRLPRPRPRPAIDPRP", "Escherichia coli TOP10", "shrunken log2 fold change", 0.294]
]}
